Field: melting point. Provide a value for each of the compounds that follow.

- compound: "COc1ccc(C(=O)C2C(Cl)=CC=CC2(C)Cl)c(OC(=O)Cc2ccccc2)c1OC (stereo not drawn)"
  melting point: "106 °C"
- compound: "COc1ccc(N(CCCC(=O)O)C(=O)C(C)N(C(C)=O)c2ccc(OC)cc2)cc1 (stereo not drawn)"
  melting point: "155 to 157 °C"

Each of the following entries comes with a recorded value; kindly state melting point for each.
1. CNC(=O)c1ccccc1Nc1nc(Nc2ccc3c(c2)COCCN3C)ncc1Cl
2. O=[N+]([O-])c1ccc(-c2cc3c(Nc4cccc(Cl)c4)ncnc3[nH]2)cc1
3. Cc1ccc(C)n1N1C(=O)c2ccccc2C1=O
4. CC(=O)Nc1cc(C)c(C)cc1OC(C)=O
5. O=C(Nc1cccc2[nH]ccc12)c1ccccc1OCC(O)CN1CCN(C(c2ccccc2)c2ccccc2)CC1 (stereo not drawn)

1. 216 to 217 °C
2. > 250 °C
3. 182 to 184 °C
4. 156 to 158 °C
5. 170 °C

Each of the following entries comes with a recorded value; kindly state melting point for each.
1. O=C1C(=CNCCO)Cc2c(Cl)cccc21
2. CCc1cc(CC(=O)O)n(C)c1C(=O)c1ccc(Cl)cc1
3. Cc1ccccc1-c1cc(N2CCN(C)CC2)ncc1N(C)C(=O)C(C)(C)c1cc(C(F)(F)F)cc(C(F)(F)F)c1
4. NC(=Nc1ccc(N2CCNCC2)cc1)c1cccs1
5. CS(=O)(=O)c1ccc(-c2cc(C(=O)c3ccc(Cl)cc3)sc2N2CCOCC2)cc1
6. CC(C)c1cnc(NC(=O)Nc2cccc(N)c2)s1
7. COC(=O)C(Cl)=C(C)N
8. COC(=O)c1cc2cc(OC)c(OC)cc2c(-c2ccnc(-n3c(=O)cc(NCCCn4ccnc4)c4ccccc43)c2)c1C(=O)OC

1. 164 to 166 °C
2. 129 to 131 °C
3. 155 to 157 °C
4. 180 °C
5. 169 °C
6. 113 to 115 °C
7. 68 to 70 °C
8. 142 to 148 °C

Each of the following entries comes with a recorded value; kindly state melting point for each.
1. CCOC(=O)N(C)CC1CN(c2c(F)cc(C(=O)O)c(F)c2F)CCO1 (stereo not drawn)
2. COc1cc(C(C)C)c(Oc2cnc(N)nc2N)cc1-c1ncon1
3. COc1ccc(C2Sc3c(ccc4ccccc34)N(CCN(C)C)C(=O)C2OC(=O)c2cc(OC)c(OC)c(OC)c2)cc1 (stereo not drawn)
4. NNc1cc2c(nn1)CCCCCC2
5. COc1cc(C(=O)NS(=O)(=O)c2ccccc2C)ccc1Cn1cc(CCC(=O)N(C)C)c2ccc(CCC(=O)N(C)C)cc21

1. 170 to 172 °C
2. 135 to 138 °C
3. 189 to 190 °C
4. 145 to 148 °C
5. 105 to 109 °C
